Where do the numbers come from? From patent US7759369B2.

Catalogue of Ki readings, one per entry.
target: TP receptor (Homo sapiens); construct: expressed in transfected cells; host or cells: CHO-K1; assay: human TP calcium mobilisation assay (CHO-K1 cells, U46619, FLIPR); type: cell-based; conditions: free bases or sodium salts; read-out: functional pKi, human TP calcium mobilisation assay (converted)
Sequence (P21731 whole entry): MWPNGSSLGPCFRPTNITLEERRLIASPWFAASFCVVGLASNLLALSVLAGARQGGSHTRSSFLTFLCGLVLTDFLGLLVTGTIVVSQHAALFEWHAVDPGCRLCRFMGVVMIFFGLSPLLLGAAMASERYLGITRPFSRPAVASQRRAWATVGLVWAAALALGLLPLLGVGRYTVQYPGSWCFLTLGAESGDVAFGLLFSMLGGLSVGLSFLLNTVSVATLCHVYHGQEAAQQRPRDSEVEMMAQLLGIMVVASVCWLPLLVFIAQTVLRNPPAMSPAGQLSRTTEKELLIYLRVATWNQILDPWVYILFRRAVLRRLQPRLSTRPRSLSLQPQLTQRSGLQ

Past entries and their recorded results:
Which measured Ki value corresponds to CS(=O)(=O)NC(=O)c1cccc(Cc2cc(Cl)ccc2OCc2ccc(Cl)cc2F)n1 ?
> 1000 nM

Which measured Ki value corresponds to O=C(NS(=O)(=O)c1cccc(Br)c1)c1cccc(Cc2cc(Cl)ccc2OCc2ccc(Cl)cc2F)n1 ?
≤ 31.6 nM

Which measured Ki value corresponds to O=C(O)c1cccc(Cc2cc(Cl)ccc2OCc2ccccc2Cl)n1 ?
> 1000 nM

Further cases:
Which measured Ki value corresponds to Cc1noc(C)c1S(=O)(=O)NC(=O)c1cccc(Cc2cc(Cl)ccc2OCc2ccc(Cl)cc2F)n1 ?
< 1000 nM
